- TEST TARGET: T1, FX activation peptide 12-mer QATSSSGEAPDS (human)
- T1 peptide: QATSSSGEAPDS-biotin
- METHOD SUMMARY: peptide ELISA
Ends that are not written are not given here.

{"BINDER": "Nb 729C08 (VHH, monovalent Nanobody; also called Nb 729008; not shown: C-terminal FLAG3 and HIS6 tag) VHH: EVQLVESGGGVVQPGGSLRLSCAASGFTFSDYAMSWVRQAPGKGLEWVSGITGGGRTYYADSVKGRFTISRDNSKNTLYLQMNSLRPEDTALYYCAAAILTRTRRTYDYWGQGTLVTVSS", "ELISA signal relative to background": 1.12}
{"BINDER": "Nb 702C12 (VHH, monovalent Nanobody; not shown: C-terminal FLAG3 and HIS6 tag) VHH: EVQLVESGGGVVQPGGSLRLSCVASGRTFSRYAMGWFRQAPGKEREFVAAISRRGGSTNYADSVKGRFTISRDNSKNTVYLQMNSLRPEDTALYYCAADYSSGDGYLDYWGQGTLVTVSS", "ELISA signal relative to background": 0.96}
{"BINDER": "Nb 701B09 (VHH, monovalent Nanobody; also called Nb 701609; not shown: C-terminal FLAG3 and HIS6 tag) VHH: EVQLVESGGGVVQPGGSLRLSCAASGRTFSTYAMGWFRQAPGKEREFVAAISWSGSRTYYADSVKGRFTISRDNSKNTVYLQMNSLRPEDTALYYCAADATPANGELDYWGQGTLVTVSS", "ELISA signal relative to background": 0.77}
{"BINDER": "Nb 701D07 (VHH, monovalent Nanobody; not shown: C-terminal FLAG3 and HIS6 tag) VHH: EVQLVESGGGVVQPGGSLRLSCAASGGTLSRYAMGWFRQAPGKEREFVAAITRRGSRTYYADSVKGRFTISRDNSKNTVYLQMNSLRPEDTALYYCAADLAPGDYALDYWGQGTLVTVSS", "ELISA signal relative to background": 0.81}
{"BINDER": "Nb 730C03 (VHH, monovalent Nanobody; also called Nb 730003; not shown: C-terminal FLAG3 and HIS6 tag) VHH: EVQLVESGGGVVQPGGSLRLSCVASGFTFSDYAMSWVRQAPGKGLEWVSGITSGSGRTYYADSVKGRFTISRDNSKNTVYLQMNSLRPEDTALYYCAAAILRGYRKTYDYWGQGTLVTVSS", "ELISA signal relative to background": 1.14}
{"BINDER": "Nb 721E08 (VHH, monovalent Nanobody; not shown: C-terminal FLAG3 and HIS6 tag) VHH: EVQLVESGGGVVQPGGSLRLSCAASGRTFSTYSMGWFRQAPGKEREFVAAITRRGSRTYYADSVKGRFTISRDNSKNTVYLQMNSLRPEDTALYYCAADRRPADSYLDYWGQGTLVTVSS", "ELISA signal relative to background": 1.97}
{"BINDER": "Nb 729A04 (VHH, monovalent Nanobody; not shown: C-terminal FLAG3 and HIS6 tag) VHH: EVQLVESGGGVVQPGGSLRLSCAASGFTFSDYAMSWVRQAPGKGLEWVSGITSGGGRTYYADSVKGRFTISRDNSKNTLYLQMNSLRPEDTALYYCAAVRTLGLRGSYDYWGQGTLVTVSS", "ELISA signal relative to background": 1.08}
{"BINDER": "Nb 501A02 (VHH, monovalent control Nanobody; also called control Nanobody; not shown: C-terminal FLAG3 and HIS6 tag) VHH: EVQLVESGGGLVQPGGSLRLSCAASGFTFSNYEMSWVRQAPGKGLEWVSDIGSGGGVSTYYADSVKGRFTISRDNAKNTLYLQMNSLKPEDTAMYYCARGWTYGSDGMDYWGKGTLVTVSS", "ELISA signal relative to background": 0.82}
{"BINDER": "Nb 701C06 (VHH, monovalent Nanobody; not shown: C-terminal FLAG3 and HIS6 tag) VHH: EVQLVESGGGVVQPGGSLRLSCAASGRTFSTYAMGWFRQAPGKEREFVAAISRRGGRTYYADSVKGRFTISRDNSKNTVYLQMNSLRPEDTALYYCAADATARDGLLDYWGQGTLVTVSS", "ELISA signal relative to background": 0.94}
